Values compiled from PubChem BioAssay (NCI).

- Tested on: KM12 colon
- Assay Explanation: NCI tumour cell line growth inhibition, 48 h
This section presents compounds with their documented TGI values.

Worked cases, TGI given:
{"Compound": "CCCCCCCCOC(=O)CC[C@@H](C)[C@H]1CC[C@H]2[C@@H]3[C@H](OC(=O)CCN)C[C@@H]4C[C@H](OC(=O)CCN)CC[C@]4(C)[C@H]3C[C@H](OC(=O)CCN)[C@]12C", "Val": "7.51 µM"}
{"Compound": "O=C(/C=C/c1ccccc1)C(Br)C(Br)c1ccccc1 (centres undefined)", "Val": "4.38 µM"}
{"Compound": "O=C1CC2C(=O)c3ccccc3CC2c2ccccc21 (centres undefined)", "Val": "> 100 µM"}
{"Compound": "Cc1nn[n-]n1.N.N.N.N.N.[Cl-].[Co+3]", "Val": "> 100 µM"}

Give recorded TGI. COc1cc2ncn(-c3cc(OCc4ccccc4C(F)(F)F)c(C(=O)N(C)C)s3)c2cc1OC
> 25 µM

In one line, give reported TGI of the entry COc1ccc2c(=O)cc(-c3ccccc3)[nH]c2c1 .
> 100 µM

Provide TGI value for the following compound: COc1ccc(NC(=O)CSC2=C(Nc3cccc(Br)c3)C(=O)N(Cc3ccccc3)C2=O)cc1Cl
> 100 µM

Name the recorded TGI of the compound listed here: CC(C)(C)c1cc(C(O)(C(F)(F)F)C(F)(F)F)c2c(c1)C(C(F)(F)F)(C(F)(F)F)OC(C)(C(C)(C)C)N2 (centres undefined)
> 100 µM

Report measured TGI; entry is CN(C(=O)C12C3C4C5C3C1(C(=O)C13C6C7C8C6C1C8C73)C5C42)C(C)(C)C (centres undefined)
> 50 µM
